# Tested on: T1, glucagon receptor (UniProt P47871 26-477, limits assumed)
# T1 construct: whole, on cells; also called GR; Glucagon
# T1 sequence (P47871 26-477 limits assumed): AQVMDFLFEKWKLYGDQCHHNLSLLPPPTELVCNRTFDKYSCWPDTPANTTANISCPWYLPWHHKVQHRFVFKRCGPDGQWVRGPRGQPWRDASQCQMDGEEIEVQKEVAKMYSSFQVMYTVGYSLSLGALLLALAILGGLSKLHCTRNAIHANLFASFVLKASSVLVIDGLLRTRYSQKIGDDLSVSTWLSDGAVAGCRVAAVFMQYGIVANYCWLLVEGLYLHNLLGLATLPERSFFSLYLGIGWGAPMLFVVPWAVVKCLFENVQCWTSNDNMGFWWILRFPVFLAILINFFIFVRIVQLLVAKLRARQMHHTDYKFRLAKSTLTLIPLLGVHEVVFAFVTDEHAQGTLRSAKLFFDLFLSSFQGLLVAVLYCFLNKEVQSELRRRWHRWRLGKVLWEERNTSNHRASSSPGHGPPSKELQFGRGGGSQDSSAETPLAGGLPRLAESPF
# Protocol: receptor binding, method not described
Square brackets hold non-standard residues; d marks the D form. Ends that are not written are not given here. PLA = 3-phenyllactic acid (2-hydroxy-3-phenylpropanoic acid); PhLac = O=C(O)[C@@H](O)Cc1ccccc1
log10(IC50): recorded values
// units: nM (pre-log); metric: IC50; scale: log10

Look over these answered cases.
[PhLac]TSEYC(maleimido methoxyPEG 20 kDa)KYLDSRRAQDFVQWLMNT-NH2 [[PLA6, E9, C11(20kDaPEG)]Glucagon(aa6-29)-NH2]	2.89
C(PEG 1.2 kDa)FTSEYSKYLDSRRAQDFVQWLMNT-NH2 [[C5(1.2kDaPEG), E9]Glucagon(aa5-29)-NH2]	3.03
{PLA}-TC(PEG 1.2 kDa)EYSKYLDSRRAQDFVQWLMNT-NH2 [[PLA6, C8(1.2kDaPEG), E9]Glucagon(aa6-29)-NH2]	2.34
[PhLac]TC(maleimido methoxyPEG 20 kDa)EYSKYLDSRRAQDFVQWLMNT-NH2 [[PLA6, C8(20kDaPEG), E9]Glucagon(aa6-29)-NH2]	2.48
{PLA}-TC(PEG 5 kDa)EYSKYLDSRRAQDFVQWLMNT-NH2 [[PLA6, C8(5kDaPEG), E9]Glucagon(aa6-29)-NH2]	2.98

Turning now to a further record.
Recorded result, {PLA}-TSEYSKYLDSRRAQDFVC(PEG 1.2 kDa)WLMNT-NH2 [[PLA6, E9,C24(1.2 kDaPEG)]Glucagon(aa6-29)-NH2] , log10(IC50): 0.67
